As shown below, each of these compounds has a reported composite z-score value.
System: wheat germ agglutinin (Triticum aestivum), Alexa647-labelled
Assay: wheat germ agglutinin binders on compound microarrays, profiling panel, artefact control for SMM control-protein annotation, biochemical, small-molecule microarray, 635/667 nm fluorescence (AID 1140);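 also: score merges 667 nm feature emission with signal to noise over triplicate slides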
Settings: WGA-A647 binding, 635 nm fluorescence, higher = more signal
Output: the number by itself.

# annotated cases, reported composite z-score shown
>>> observed("Cc1ccc(S(=O)(=O)N[C@@H]2COC(=O)[C@@H](C)COC(=O)CC=C[C@H]2C)cc1")
-0.0537
>>> observed("CO[C@@H]1COC(=O)[C@@H](C)COC(=O)[C@@H](C)NC(=O)CC=C[C@@H]1C")
0.224
>>> observed("CC(C)=CCCC(C)=CCON=C1C[C@@H](O)[C@@H](O)[C@@H]2[C@@H]3C(=O)N(C(C)(C)C)C(=O)[C@@H]3CC[C@H]12")
-0.849
>>> observed("O=C1[C@H]2[C@H]3[C@H](O)[C@H](O)CC(=NOC[C@@H](O)COCc4ccco4)[C@H]3CC[C@H]2C(=O)N1c1ccc(F)cc1F")
0.972

For the next question, use this compound.
[ask] So what's the measured composite z-score for this one? CON=C[C@@H](C)[C@H](OCc1ccccc1)C(C)C
[reply] -0.195

src = PubChem BioAssay
